- PROTOCOL DETAILS: Cmax in Sprague-Dawley rat at 10 mg/kg, po via gavage measured up to 48 hrs by HPLC analysis
- Format: ADME, organism-based
- Set-up: route oral, dose 10 mg/kg, time <=48
- CONDITION: in vivo
MEASUREMENT TYPE: Cmax (ng/mL)
Express the result in ng/mL but write the number alone.

Would you mind telling me what Cmax value was observed for `Cc1ccc(=O)n(-c2ccccc2)c1` ?
1020

====

- PROTOCOL DETAILS: AUC (0 to t) in Sprague-Dawley rat at 15.5 mg/kg, po via gavage measured up to 48 hrs by HPLC analysis
- Assay type: ADME, organism-based
- Set-up: route oral, dose 15.5 mg/kg, time <=48
- CONDITION: in vivo
MEASUREMENT TYPE: AUC(0-t) at 48 h (µg·h/mL)
// units = µg·h/mL; emit number, no label

Which value of AUC(0-t) at 48 h has been reported for `CN1CCN(CCCNc2ccc(Cn3cc(C(F)(F)F)ccc3=O)cc2)CC1` in the records?
11.2

Origin of the recorded values: ChEMBL document CHEMBL4673208
